- Tested on: CAF#7 (primary prostate cancer-associated fibroblasts of myCAF-like type)
- Protocol notes: drug sensitivity score (DSS2, normalised partial AUC of dose-response, 72 h CellTiter-Glo viability) (DSS (dimensionless)); higher = more sensitive (stronger growth inhibition / cytotoxicity); extreme values may be limits of the assay
Below, each of the molecules is paired with its reported drug sensitivity score value.
Write the value as a bare number.

Recorded drug sensitivity score, per entry:
COc1cc(C)c(/C=C/C(C)=C/C=C/C(C)=C/C(=O)O)c(C)c1C [Acitretin] (tested concentration range 1-10000 nM); 0
COc1cccc(OCCCN)c1-c1cc(Nc2cnc(C#N)cn2)n[nH]1 [Prexasertib] (tested concentration range 1-10000 nM); 5.4
Nc1ccn([C@@H]2O[C@H](CO)[C@@H](O)[C@@H]2O)c(=O)n1 [Cytarabine] (tested concentration range 1-10000 nM); 2.6
COc1cc2ncnc(Nc3ccc(F)c(Cl)c3)c2cc1NC(=O)/C=C/CN1CCCCC1 [Dacomitinib] (tested concentration range 0.1-1000 nM); 0

Now for another entry.
*Q* Please report the recorded drug sensitivity score for CC(C)C[C@H](NC(=O)[C@H](CCc1ccccc1)NC(=O)CN1CCOCC1)C(=O)N[C@@H](Cc1ccccc1)C(=O)N[C@@H](CC(C)C)C(=O)[C@@]1(C)CO1 [Carfilzomib] (tested concentration range 0.1-1000 nM) .
*A* 16.7

---

- System: CAF#2 (primary prostate cancer-associated fibroblasts of iCAF-like type)
- Protocol notes: drug sensitivity score (DSS2, normalised partial AUC of dose-response, 72 h CellTiter-Glo viability) (DSS (dimensionless)); higher = more sensitive (stronger growth inhibition / cytotoxicity); extreme values may be limits of the assay
Below, each of the molecules is paired with its reported drug sensitivity score value.
Write the value as a bare number.

Recorded drug sensitivity score, per entry:
Cc1ccc(C(=O)Nc2ccc(Oc3cc4cnn(C)c4cc3-c3cn[nH]c3)c(F)c2)c(=O)n1-c1ccc(F)cc1 [Merestinib] (tested concentration range 0.1-1000 nM); 5.6
Cc1c(-c2c(-c3ccc(F)o3)sc3ncnc(O[C@H](Cc4ccccc4OCc4ccnn4CC(F)(F)F)C(=O)O)c23)ccc(OCCN2CCN(C)CC2)c1Cl (tested concentration range 0.1-1000 nM); 0

Now for another entry.
*Q* Please report the recorded drug sensitivity score for CN1CCN(c2cc(C(=O)Nc3ccc4c(c3)-c3c(c(C(N)=O)nn3-c3ccc(F)cc3)CC4)c(Cl)cn2)CC1 [PHA 408] (tested concentration range 1-10000 nM) .
*A* 7

---

- System: CAF#3 (primary prostate cancer-associated fibroblasts of myCAF-like type)
- Protocol notes: drug sensitivity score (DSS2, normalised partial AUC of dose-response, 72 h CellTiter-Glo viability) (DSS (dimensionless)); higher = more sensitive (stronger growth inhibition / cytotoxicity); extreme values may be limits of the assay
Measured property: drug sensitivity score
Write the value as a bare number.

Recorded drug sensitivity score, per entry:
CO[C@H]1C[C@@H]2CC[C@@H](C)[C@@](O)(O2)C(=O)C(=O)N2CCCC[C@H]2C(=O)O[C@H]([C@H](C)C[C@@H]2CC[C@@H](O)[C@H](OC)C2)CC(=O)[C@H](C)/C=C(\C)[C@@H](O)[C@@H](OC)C(=O)[C@H](C)C[C@H](C)/C=C/C=C/C=C/1C [Sirolimus] (tested concentration range 0-100 nM); 2.2
O=C(NCc1ccncc1)C12CC3CC(C1)CC(c1ccc(Cl)cc1)(C3)C2 [Opaganib] (tested concentration range 5-50000 nM); 1.2
CN(Cc1cnc2nc(N)nc(N)c2n1)c1ccc(C(=O)N[C@@H](CCC(=O)O)C(=O)O)cc1 [Methotrexate] (tested concentration range 0.5-5000 nM); 0
Cc1nc(NC(=O)N2CCC[C@H]2C(N)=O)sc1-c1ccnc(C(C)(C)C(F)(F)F)c1 [Alpelisib] (tested concentration range 0.2-2500 nM); 2.1
Cc1cc2c(F)c(Oc3ncnn4cc(OC[C@@H](C)O)c(C)c34)ccc2[nH]1 [Brivanib] (tested concentration range 0.1-1000 nM); 0

Now for another entry.
*Q* Please report the recorded drug sensitivity score for CCN(CC)CCCC(C)Nc1ccnc2cc(Cl)ccc12 (stereo unspecified) [Chloroquine] (tested concentration range 10-100000 nM) .
*A* 8.4

---

Below, each of the molecules is paired with its reported drug sensitivity score value.
- System: CAF#3
- Protocol notes: drug sensitivity score (DSS2, normalised partial AUC of dose-response, 72 h CellTiter-Glo viability) (DSS (dimensionless)); higher = more sensitive (stronger growth inhibition / cytotoxicity); extreme values may be limits of the assay
Write the value as a bare number.

O=C(CCCCCCC(=O)Nc1ccccc1)NO [Vorinostat] (tested concentration range 1-10000 nM); 6.3
CC(=O)OC[C@H]1O[C@@H]([S-])[C@H](OC(C)=O)[C@@H](OC(C)=O)[C@@H]1OC(C)=O.CCP(CC)CC.[Au+] [Auranofin] (tested concentration range 0.2-2500 nM); 5.1
Nc1cc(COc2c(Cl)cc(C[C@H](N)C(=O)O)cc2Cl)c2oc(-c3ccccc3)nc2c1 [JPH203] (tested concentration range 0.5-5000 nM); 0
C/C(=C\c1csc(C)n1)[C@@H]1C[C@@H]2O[C@]2(C)CCC[C@H](C)[C@H](O)[C@@H](C)C(=O)C(C)(C)[C@@H](O)CC(=O)N1 [Ixabepilone] (tested concentration range 0.1-1000 nM); 0.1
C[C@@H](Oc1ccc2[nH]nc(/C=C/c3cnn(CCO)c3)c2c1)c1c(Cl)cncc1Cl (tested concentration range 0.1-1000 nM); 9.9
CN1CCN(c2nc(C3=C(c4c[nH]c5ccccc45)C(=O)NC3=O)c3ccccc3n2)CC1 [Sotrastaurin] (tested concentration range 1-10000 nM); 0

*Q* Please report the recorded drug sensitivity score for C=CC(=O)Nc1cc(Nc2nccc(-c3cn(C)c4ccccc34)n2)c(OC)cc1N(C)CCN(C)C [Osimertinib] (tested concentration range 0.2-2500 nM) .
*A* 5.4

*Q* Record: CC(C)(C)NC(=O)[C@H]1CC[C@H]2[C@@H]3CC[C@H]4NC(=O)C=C[C@]4(C)[C@H]3CC[C@]12C [Finasteride] (tested concentration range 1-10000 nM)
*A* 0.5

*Q* Record: Nc1ncn([C@H]2C[C@H](O)[C@@H](CO)O2)c(=O)n1 [Decitabine] (tested concentration range 1-10000 nM)
*A* 0.1

*Q* Record: Cc1ncc(-c2ccnc(Nc3ccc(S(C)(=O)=O)cc3)n2)n1C(C)C [AZD-5438] (tested concentration range 1-10000 nM)
*A* 4

*Q* Record: CN(C)C1CCN(C(=O)c2ccc(NC(=O)Nc3ccc(-c4nc(N5CCOCC5)nc(N5CCOCC5)n4)cc3)cc2)CC1 [Gedatolisib] (tested concentration range 0.1-1000 nM)
*A* 8.9

---

- Tested on: CAF#3
- Protocol notes: drug sensitivity score (DSS2, normalised partial AUC of dose-response, 72 h CellTiter-Glo viability) (DSS (dimensionless)); higher = more sensitive (stronger growth inhibition / cytotoxicity); extreme values may be limits of the assay
Below, each of the compounds is paired with its reported drug sensitivity score value.
Write the value as a bare number.

*Q* Form: Entry = O=C(c1ccc(F)c(F)c1Nc1ccc(I)cc1F)N1CC(O)([C@@H]2CCCCN2)C1 [Cobimetinib] (tested concentration range 0.1-1000 nM) | System = CAF#3 | drug sensitivity score = ____
*A* 0

*Q* Record: CCOC(=O)C1=CCCC[C@H]1S(=O)(=O)Nc1ccc(F)cc1Cl [Resatorvid] (tested concentration range 1-10000 nM)
*A* 5.7

*Q* Record: Cc1cccc(-c2nn3c(c2-c2ccnc4ccc(C(N)=O)cc24)CCC3)n1 [Galunisertib] (tested concentration range 0.1-1000 nM)
*A* 0.1

---

- Test system: CAF#2
- Protocol notes: drug sensitivity score (DSS2, normalised partial AUC of dose-response, 72 h CellTiter-Glo viability) (DSS (dimensionless)); higher = more sensitive (stronger growth inhibition / cytotoxicity); extreme values may be limits of the assay
Measured property: drug sensitivity score
Write the value as a bare number.

CCCCOc1nc(N)c2c(n1)N(Cc1cccc(CN3CCCC3)c1)CC(=O)N2 [Vesatolimod] (tested concentration range 1-10000 nM); 0
O=C(/C=C/c1cccc(S(=O)(=O)Nc2ccccc2)c1)NO [Belinostat] (tested concentration range 1-10000 nM); 12.3
CNC(=O)c1ccccc1Nc1cc(Nc2ccc(N3CCOCC3)cc2OC)ncc1C(F)(F)F [VS-4718] (tested concentration range 1-10000 nM); 11.9
C[C@@H]1CN(Cc2ccc(F)cc2)[C@@H](C)CN1C(=O)c1cc2c(C(=O)C(=O)N(C)C)cn(C)c2cc1Cl [Talmapimod] (tested concentration range 1-10000 nM); 0
Nc1nccc(-c2c(-c3ccc(F)cc3)ncn2C2CCCCC2)n1 (tested concentration range 1-10000 nM); 0.6

*Q* Please report the recorded drug sensitivity score for CN(C)C(=O)c1ccc(S(=O)(=O)c2ccc(NC(=O)[C@@](C)(O)C(F)(F)F)c(Cl)c2)cc1 [AZD7545] (tested concentration range 1-10000 nM) .
*A* 0

*Q* Record: Cc1cc(-c2nc(-c3ccc(OC(F)(F)F)cc3)no2)nn1Cc1ccnc(N2CCN(C3CC3)CC2)c1 [BAY 87-2243] (tested concentration range 0.1-1000 nM)
*A* 1.6

*Q* Record: Nc1ccccc1NC(=O)c1ccc(CNC(=O)OCc2cccnc2)cc1 [Entinostat] (tested concentration range 1-10000 nM)
*A* 8.5

*Q* Record: CNC(=O)c1cc(Oc2ccc(NC(=O)Nc3ccc(Cl)c(C(F)(F)F)c3)c(F)c2)ccn1 [Regorafenib] (tested concentration range 1-10000 nM)
*A* 3.4

*Q* Record: CO[C@H]1C[C@@H]2CC[C@@H](C)[C@@](O)(O2)C(=O)C(=O)N2CCCC[C@H]2C(=O)O[C@H]([C@H](C)C[C@@H]2CC[C@@H](O)[C@H](OC)C2)CC(=O)[C@H](C)/C=C(\C)[C@@H](O)[C@@H](OC)C(=O)[C@H](C)C[C@H](C)/C=C/C=C/C=C/1C [Sirolimus] (tested concentration range 0-100 nM)
*A* 6.8

*Q* Record: COc1cc2c(Oc3ccc(NC(=O)C4(C(=O)Nc5ccc(F)cc5)CC4)cc3F)ccnc2cc1OCCCN1CCOCC1 [Foretinib] (tested concentration range 0.1-1000 nM)
*A* 10.3
